Target: T1, DENV抗原 (DENV阳性血清) (dengue virus (DENV), serotype )
T1 construct: also called DENV antigen in DENV-positive serum
Experiment: sandwich ELISA, antibody at 3.125 ng/ml captured on goat anti-mouse IgG, DENV-positive serum, HRP-labelled DENV mAb
Measured OD (450nm, 参考630nm) by item

binder	units-of-measure	OD (450nm, 参考630nm)
DF-5M32RMb3 (antibody, mouse IgG1, kappa, V domains shown, also called DF-8F13RMb3) VH: QVQLQQSGAELARPGASVKLSCKASGYTFLNYWMQWVKQRPGQGLEWIGAIYPGDGDTRYTQNFKGKAALTADKSSSTAYMQLSSLASEDSAVYYCATGTEGILDYWGQGTSVTVSS VL: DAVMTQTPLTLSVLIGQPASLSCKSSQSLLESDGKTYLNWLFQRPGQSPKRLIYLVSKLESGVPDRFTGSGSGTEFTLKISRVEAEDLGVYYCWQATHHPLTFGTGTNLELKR	OD	0.952
DF-5M32RMb4 (antibody, mouse IgG1, kappa, V domains shown, also called DF-8F13RMb4) VH: QVQLQQSGAELARPGASVKLSCKASGYTFINYWMQWVKQRPGQGLEWIGAIYPGDGDTRYTQNFKGKAALTADKSSSTAYMQLSSLASEDSAVYYCATGTEGLLDYWGQGTSVTVSS VL: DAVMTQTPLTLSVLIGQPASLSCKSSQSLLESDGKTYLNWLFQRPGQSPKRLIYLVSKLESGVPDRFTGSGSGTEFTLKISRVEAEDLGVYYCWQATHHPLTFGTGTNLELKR	OD	0.923
DF-5M32RMb2 (antibody, mouse IgG1, kappa, V domains shown, also called DF-8F13RMb2) VH: QVQLQQSGAELARPGASVKLSCKASGYTFLNYWMQWVKQRPGQGLEWIGAIYPGDGDTRYTQNFKGKAALTADKSSSTAYMQLSSLASEDSAVYYCATGTEGLLDYWGQGTSVTVSS VL: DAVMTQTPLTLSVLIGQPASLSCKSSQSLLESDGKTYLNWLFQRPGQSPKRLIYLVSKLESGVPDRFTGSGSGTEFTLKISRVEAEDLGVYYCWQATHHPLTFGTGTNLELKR	OD	0.96
